Biological target: Monoacylglycerol lipase ABHD6 (Mus musculus)
Assay: mouse brain serine hydrolase inhibitor potency by ABPP – cell lysate, mouse brain membrane proteome, fluorescence gel, selectivity assay for LYPLA1/LYPLA2 inhibitor project, late-stage follow-up (AID 743132)
Conditions: gel-based ABPP FP-Rh fluorescence
pIC50: −log10 of the molar value.
value.kind: pIC50

- molecule: "O=C(ON1C(=O)C2CN(C(=O)N3CCOCC3)CCN2C1=O)N1CCC(CCc2ccc(Cl)cc2)CC1 (stereo unspecified)"
  value.kind: "pIC50"
  readout.value: 8.50
